B1: Osa-1-4 twister ribozyme (parent)
chain: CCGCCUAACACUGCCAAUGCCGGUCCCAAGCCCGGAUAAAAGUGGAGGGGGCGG

- Variants of: B1
- Method Summary: self-cleavage, relative activity (ratio to wild type); higher = more cleavage; co-transcriptional
Readout: self-cleavage
API doc: respond with a numeric literal and nothing else, no unit.

Summary for this variant, CCGCCUAACACUGCCAAUGCCGGUCCCAAGCCCGGAUAAAGGUGGAGGCGGCGG [A41G G49C] : self-cleavage is 0.06

Measured self-cleavage of CCGCCUAACACUGCCUAUGCCGGUCGCAAGCCCGGAUAAAAGUGGAGGGGGCGG [A16U C26G] : 0.11

The recorded self-cleavage for entry CCGCCUAACACUGCCAAUGCCGGUCCCGAGCCCGGAUAAAAGUGGACGGGGCGG [A28G G47C] equals 0.04

The measured self-cleavage associated with CCGCCUAACACUGCCAAUGCCGGUCCCAAGCCCGGAUAAAAGAGGAGCGGGCGG [G48C U43A] reads 0.08

Looking up CCGCCUGACACUGCCAAUGCCGGUCCCAAGCCCGGAUAGAAGUGGAGGGGGCGG [A39G A7G] , I see its self-cleavage listed as 0.31

self-cleavage reading for CCGCCUAACACUGCCAACGCCGGUCCCAAGCCCGGAUAAAAGUGGAGGGUGCGG [G50U U18C] : 0.97

Given item CCGCCUAACACUGCGAGUGCCGGUCCCAAGCCCGGAUAAAAGUGGAGGGGGCGG [A17G C15G] , the value recorded as its self-cleavage is 0.71

Looking up CCGCCUAGCACUGCCAAUGCCGGUCCCAAACCCGGAUAAAAGUGGAGGGGGCGG [A8G G30A] , I see its self-cleavage listed as 0.06

The variant identified as CCGCCUAACACUGCAAAUGCCGGUCCCAAGCCCGGAUAAAAGGGGAGGGGGCGG [C15A U43G] registered its self-cleavage at 0.11

In plain terms, CCGCCUAACACUGCCAAUGCCGGUCCCAAGCCCGGAUAAAAGUGGCGCGGGCGG [A46C G48C] has a documented self-cleavage of 0.03

Quick note, self-cleavage for CCGCCUCACACUGCCAAUGCCGGUCCCAAGCCAGGAUAAAAGUGGAGGGGGCGG [A7C C33A] landed at 0.05

Sure, the documented self-cleavage for CCGCCUAACACUGCCAAUGCCGGUCCCGAGCCCGGAUAAAAGUGGAGGGGGUGG [A28G C52U] is 0.46

For CCGCCUAAAACUGCGAAUGCCGGUCCCAAGCCCGGAUAAAAGUGGAGGGGGCGG [C15G C9A] the variant record lists self-cleavage as 0.06

Input CCGCCUAACACUGCCAAUGCCUGUCCCAAGCCCGGAUACAAGUGGAGGGGGCGG [A39C G22U] . Output self-cleavage: 0.41

Consider CCGCCUAACACUGCCACUGCCGGUCCCAAGCCCGGCUAAAAGUGGAGGGGGCGG [A17C A36C] . Its measured self-cleavage is 0.21

self-cleavage for CCGCCUAACACUUCCAACGCCGGUCCCAAGCCCGGAUAAAAGUGGAGGGGGCGG [G13U U18C] is 0.03
